# system name: T1, DLG3_2, Q92796
# T1 sequence (Q92796 221-321, limits assumed, looked up): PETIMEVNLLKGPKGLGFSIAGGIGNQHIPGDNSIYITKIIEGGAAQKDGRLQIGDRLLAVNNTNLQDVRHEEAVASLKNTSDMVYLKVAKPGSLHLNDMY
# experiment: holdup assay
# Set-up: key: below the threshold = too weak to quantify, mostly under pKd 3.1 to 4
# test parameters: plain residues with an end cap or a label only (N-terminal biotin on a linker: ado-ado)
result type: pKd

Worked set:
1) VCMGDHWFDV [PRKN, O60260] | below the threshold
2) PKSNSSKEYV [CLDN7, O95471] | below the threshold
3) IKLETKKTKL [SLC15A2, Q16348] | below the threshold
4) NTALVESEDL [PALLS, Q8WX93;Q8WX93-1] | below the threshold
5) SKQFDKNAYV [CLDN10, P78369] | below the threshold

Entry QQGLLPHSSC [TYRO3, Q06418] has what pKd? below the threshold

Entry EKPIDSETKM [SLC1A3, P43003] : reported pKd = ? below the threshold

Tell me the measured pKd of EAVTVESTSL [SLC22A11, Q9NSA0] , please. below the threshold

So what does the record say about pKd for PEKVSNTTVV [IGSF5, Q9NSI5] ? 4.73

Param item = NNMAFETTHF [SLC5A12, Q1EHB4] ; retrieve measured pKd. 4.08

What does the record list as pKd for LVEEEEPMNL [HDAC7, Q8WUI4] ? below the threshold

Can you share its pKd? I mean this binder: DLLGGGSDSI [TNRC6B, Q9UPQ9] 3.99

Fill in the blank: the reported pKd of TNSKQGETTV [FZD1, Q9UP38] is ____. 4.64

State the recorded pKd for this entry: ADEMICITTL [CACNA1D, Q01668] 4.46

Need pKd, item PLPPEEESWV [GAS2L2, Q8NHY3] 4.64
